assay-name: Log P by HPLC on reversed phase columns (EEC directive 79/831 Annex V.A8)
Format: physicochemical
test-parameters: method [a]
List of LogP values.

Task: Field request: LogP | item: COC(=O)C(NC(=O)c1sc(Cl)c(Br)c1Cl)C1CC1 (stereo not drawn)
Result: 3.91^[a]

Task: Field request: LogP | item: N#CCNC(=O)c1sc(Br)c(Br)c1Cl
Result: 2.67^[a]

Task: Field request: LogP | item: CC(NC(=O)c1sc(Br)c(Br)c1F)C(=O)O (stereo not drawn)
Result: 2.28^[a]

----------
assay-name: Log P by HPLC on reversed phase columns (EEC directive 79/831 Annex V.A8)
Format: physicochemical
test-parameters: method [a]
List of LogP values.

- COC(=O)CNC(=O)c1sc(Cl)c(C#N)c1Br [1.0654]: 2.21^[a]

Task: Field request: LogP | item: C#CCOC(=O)CNC(=O)c1sc(C#N)c(Cl)c1Cl [1.0911]
Result: 2.63^[a]

Task: Field request: LogP | item: COC(=O)CC[C@H](NC(=O)c1sc(Cl)c(Cl)c1Br)C(=O)OC [1.0549]
Result: 3.41^[a]

Task: Field request: LogP | item: COC(=O)C(NC(=O)c1sc(C#N)c(Br)c1Cl)C1CC1 (stereo not shown) [1.0587]
Result: 3.08^[a]
